Recorded GI50 by entry
# Test system: MDA-MB-435
# experimentNotes: NCI tumour cell line growth inhibition, 48 h
Active and inactive are the calls of the source. No stated cut-off is given here; in the data, active = GI50 up to about 1.1 µM and inactive = higher.

The following compounds have reported results that may help.
C=C1CCCC(C)(C)[C@H]1C/C=C1\CCOC1=O | 10.3 µM (inactive)
Cc1c(C(=O)O)c2cc3ccccc3cc2c(=O)n1C | > 10 µM (inactive)

-- ask // lookup GI50 | system=MDA-MB-435 | key= Cc1ccc(S(=O)(=O)NC(=O)NCCc2ccc(O)c(O)c2)cc1
-- reply 51.3 µM (inactive)

-- ask I'm curious: which GI50 was measured for COC(=O)c1cccc(C)c1C1CN=NC12Cc1c(ccc(C)c1C)C2=O (stereo unspecified) tested on MDA-MB-435?
-- reply 35.2 µM (inactive)

-- ask Test system MDA-MB-435; read-out GI50; what value for CON(C)c1nc(N(C)OC)nc(N(C)OC)n1 ?
-- reply > 10 µM (inactive)

-- ask Which measured GI50 belongs to Cc1c2ccncc2c(C)c2c1sc1ccccc12 , tested on MDA-MB-435?
-- reply 15 µM (inactive)

---

Measured GI50 by item
# Test system: 786-0
# experimentNotes: NCI tumour cell line growth inhibition, 48 h
The source made the active and inactive calls. No stated cut-off is given here; in the data, active = GI50 up to about 1.1 µM and inactive = higher.

Worked examples follow.
CC(=O)c1cn(-c2ccc(Cl)cc2)c(=O)c2c(N)n[nH]c12 | > 100 µM (inactive)
Cc1ccc(S(=O)(=O)N2C[C@](O)(c3ccccc3)[C@H]2C)cc1 | > 100 µM (inactive)
NNC(=S)N/N=C(/C(=O)Nc1ccc(Cl)c(Cl)c1)C(C1OC(=O)c2ccccc21)[N+](=O)[O-] (stereo not given) | > 100 µM (inactive)

-- ask Item: CC[C@@H]1OC2(C)CC(S(=O)(=O)c3ccccc3O)CC1O2 (stereo not given in full) Test system: 786-0 Read-out: GI50 Value: ?
-- reply > 100 µM (inactive)

-- ask # query: GI50 | item NCCCN1CCN(CCCNc2ccc3nnn4c5ccccc5c(=O)c2c34)CC1 | system: 786-0
-- reply 9.06 µM (inactive)

---

A collection of compounds and their measured GI50
# Test system: U-251
# experimentNotes: NCI tumour cell line growth inhibition, 48 h
Calls of active or inactive are those of the source. Cut-off read from the data, not from the text of the source: active = GI50 up to about 1.1 µM and inactive = higher.

Consider the reported GI50 for these compounds:
O=CC12c3ccccc3C(c3ccccc31)C1C(=O)NC(=O)C12 (configuration not stated) | > 100 µM (inactive)
CCCCCCC(N)(CCCCCC)C(=O)Nn1c(C)ccc1C | > 100 µM (inactive)
CSC12c3cc(C)n(-c4ccc(I)cc4)c3CC(C)(C)CN1C(=O)C2Oc1ccccc1 (configuration not stated) | > 100 µM (inactive)
CN1C(=O)[C@@H]2N(CSC2(C)C)C1=S | > 100 µM (inactive)
N#CC(/C(CCC(=O)Nc1ccc(Cl)cc1)=N/NC(=O)c1cc2ccccc2cc1O)c1ccccc1 (configuration not stated) | 32.8 µM (inactive)
COc1c(O)c(OC)c(C(=O)/C=C/c2ccccc2)c(O)c1OC | 31.9 µM (inactive)

-- ask # get_value(readout='GI50', item= CCOc1ccccc1NC(=O)C(=O)Cc1nc2ccccc2s1 )
-- reply > 100 µM (inactive)

-- ask Please give the measured GI50 for this compound: O=C(O)CCC(C(=O)O)N1C(=O)c2ccccc2C1=O (configuration not stated)
-- reply > 100 µM (inactive)

-- ask GI50 for Cc1cc(OC2OC(CO)C(O)C(O)C2O)ccc1O (configuration not stated) ?
-- reply > 100 µM (inactive)

---

# Tested on: NCI-H226
# experimentNotes: NCI tumour cell line growth inhibition, 48 h
Activity calls are given as the source filed them. Cut-off read from the data, not from the text of the source: active = GI50 up to about 1.1 µM and inactive = higher.
One label from this list, please: 1 = active, 0 = inactive

Study these solved cases before continuing.
N#CC(/C(CCC(=O)Nc1ccc(Cl)cc1)=N/NC(=O)c1cc2ccccc2cc1O)c1ccccc1 (stereo not drawn) | 0
COc1ccc(NC(=O)CC/C(CC(=O)c2ccco2)=N/NC(N)=S)cc1 | 0
CCOC(=O)Nc1ccc2c(c1)N(C(=O)CCN(CC)CC)c1ccccc1S2 [ETHACIZINE] | 0

-- ask Identify the outcome logged in this assay for the compound shown: COc1ccc(OC)c(/C=N/N=C2\C(=O)Nc3c(Cl)cc(Cl)cc32)c1
-- reply 0

-- ask Any idea what this test logged for CCOC(=O)/C(C#N)=C1\c2c([nH]c(=S)[nH]c2=O)Oc2ccc3ccccc3c21 ?
-- reply 0

-- ask What outcome does the record of this test show for COC(=O)[C@]1(C)CC[C@]2(C)CC[C@]3(C)C4[C@H]5Oc6c(cc7c(c6C)CCC6[C@@]7(C)CC[C@@]7(C)C8[C@](C)(CCC[C@@]8(C)C(=O)OC)CC[C@]67C)O[C@H]5c5c(cc6c(c5C)O[C@@]5(C)C7=CC=C8[C@@](C)(CC[C@@]9(C)[C@@H]%10C[C@](C)(C(=O)OC)CC[C@]%10(C)CC[C@]89C)C7=CC(=O)[C@@]5(O)O6)[C@]4(C)CC[C@@]3(C)C2C1 (stereo partly drawn) ?
-- reply 0

-- ask Could you please tell me the result logged for CC(=O)/C=C1\CC(=O)Nc2ccccc2N1 in this assay?
-- reply 0

-- ask Tell me the assay call for Cc1ccc(S(=O)(=O)NC(=O)NCCc2ccc(O)c(O)c2)cc1 please.
-- reply 0

---

# Tested on: DU-145
# experimentNotes: NCI tumour cell line growth inhibition, 48 h
Activity calls are given as the source filed them. Rule as the data show it: active = GI50 up to about 1.1 µM and inactive = higher. *1 amine or outer side, *2 acyl side, *3 side chain or, on linkers, in order; H or OH if unused. Where a SMILES comes first, the peptide text is derived from it. Bridges are numbered along the chain shown (N, C = ends). Roman numbers before positions name the chains, in order. [ ]: non-standard residue; d: D form. Actinocin(9to1) = Cc1c2oc3c(C)ccc(C(=O)[*:1])c3nc-2c(C(=O)[*:2])c(N)c1=O; Hyp = O=C(O)[CH]1C[CH](O)CN1; NMeV = CN[CH](C(=O)O)C(C)C; Sar = CNCC(=O)O
Choose the fitting class; nothing outside TRUE for active, FALSE for inactive is accepted.

N#Cc1nc(CCC(c2nc(C#N)c(N)o2)N2C(=O)c3ccccc3C2=O)oc1N (configuration not stated) | FALSE

From here, focus on the item given below.
-- ask What was the test verdict on Cc1c2oc3c(C)ccc(C(=O)NC4C(=O)NC(C(C)C)C(=O)N5CC(O)CC5C(=O)N(C)CC(=O)N(C)C(C(C)C)C(=O)OC4C)c3nc-2c(C(=O)NC2C(=O)NC(C(C)C)C(=O)N3CC(O)CC3C(=O)N(C)CC(=O)N(C)C(C(C)C)C(=O)OC2C)c(N)c1=O (configuration not stated) (I: TV[Hyp][Sar][NMeV] / II: TV[Hyp][Sar][NMeV]; ester I:1-I:C, II:1-II:C; linker I:N-II:N via Actinocin(9to1); configuration not given here) ?
-- reply TRUE

---

Measured GI50 of individual entries
# Test system: EKVX
# experimentNotes: NCI tumour cell line growth inhibition, 48 h
Activity calls are given as the source filed them. No stated cut-off is given here; in the data, active = GI50 up to about 1.1 µM and inactive = higher.

Previously resolved entries follow.
Cc1nc2c3c(ccc2nc1O)C(=O)c1ccccc1C3=O | 23.1 µM (inactive)
CC(=O)Nc1ccc(-c2cc(C(=O)O)c3cc4ccccc4cc3n2)cc1 | > 100 µM (inactive)
CC1=C(C(=O)CC(=O)C(=O)Nc2ccc(C)c(C)c2)Sc2ccccc2N1 | > 100 µM (inactive)

Now consider a different compound.
-- ask Quick one: GI50 for N#CC(/C(CCC(=O)Nc1ccc(Cl)cc1)=N/NC(=O)c1cc2ccccc2cc1O)c1ccccc1 (stereo unspecified) ?
-- reply 34.4 µM (inactive)

---

Listed next: entries and their corresponding GI50.
# Test system: LOX IMVI
# experimentNotes: NCI tumour cell line growth inhibition, 48 h
Active and inactive are the calls of the source. Rule as the data show it: active = GI50 up to about 1.1 µM and inactive = higher.

COC(=O)c1ccccc1Nc1nc(-c2cccs2)nc2cc(OC)c(OC)cc12 | 39.4 µM (inactive)

-- ask For CC(=O)OC1CC2(C)C(OC(C)=O)CC1C2(C)C (stereo not given) , what is its reported GI50?
-- reply > 100 µM (inactive)

-- ask Given the entry O=C(O)C(Cc1ccccc1)N1C(=O)c2ccccc2C1=O (stereo not given) , report its measured GI50.
-- reply > 100 µM (inactive)

-- ask Reported GI50 for COc1cccc2c1OC(c1ccc(Cl)cc1)C([N+](=O)[O-])=C2 (stereo not given) : what is it?
-- reply 1.2 µM (inactive)

-- ask I have this compound here, COCCOCOC(C)(C)[C@H](CCOC(C)=O)O[Si](c1ccccc1)(c1ccccc1)C(C)(C)C , and I need its recorded GI50.
-- reply 14.1 µM (inactive)

---

# Tested on: T47D
# experimentNotes: NCI tumour cell line growth inhibition, 48 h
The source made the active and inactive calls. No stated cut-off is given here; in the data, active = GI50 up to about 1.1 µM and inactive = higher.
Give your call using only these classes: active, inactive

CCN1CCC(O)(C(C(=O)O)c2ccccc2)CC1 (stereo unspecified) | inactive

-- ask Can you look up the reported call for C[C@@H]1OCC(O)C([C@H]2OC(c3ccccc3)=N[C@H]2CO)O1 (stereo partly specified) for me?
-- reply inactive

-- ask Any idea what this test logged for CSC1=NN=C(SC)NN1 ?
-- reply active

-- ask Hey, what did the test say about O=C(C1OC1c1ccc(F)cc1)C12CC3CC(CC(C3)C1)C2 (stereo unspecified) ?
-- reply inactive

-- ask Give the logged outcome of this assay for the following compound: O=[N+]([O-])c1ccc(NC(=S)Nc2ccccn2)cc1
-- reply inactive

-- ask Call for entry CCOC(=O)Nc1ccc2c(c1)N(C(=O)CCN(CC)CC)c1ccccc1S2 :
-- reply inactive
